- target desc: Recombinant human FGFR2 (Homo sapiens, UniProt P21802)
- Sequence (P21802 22-821): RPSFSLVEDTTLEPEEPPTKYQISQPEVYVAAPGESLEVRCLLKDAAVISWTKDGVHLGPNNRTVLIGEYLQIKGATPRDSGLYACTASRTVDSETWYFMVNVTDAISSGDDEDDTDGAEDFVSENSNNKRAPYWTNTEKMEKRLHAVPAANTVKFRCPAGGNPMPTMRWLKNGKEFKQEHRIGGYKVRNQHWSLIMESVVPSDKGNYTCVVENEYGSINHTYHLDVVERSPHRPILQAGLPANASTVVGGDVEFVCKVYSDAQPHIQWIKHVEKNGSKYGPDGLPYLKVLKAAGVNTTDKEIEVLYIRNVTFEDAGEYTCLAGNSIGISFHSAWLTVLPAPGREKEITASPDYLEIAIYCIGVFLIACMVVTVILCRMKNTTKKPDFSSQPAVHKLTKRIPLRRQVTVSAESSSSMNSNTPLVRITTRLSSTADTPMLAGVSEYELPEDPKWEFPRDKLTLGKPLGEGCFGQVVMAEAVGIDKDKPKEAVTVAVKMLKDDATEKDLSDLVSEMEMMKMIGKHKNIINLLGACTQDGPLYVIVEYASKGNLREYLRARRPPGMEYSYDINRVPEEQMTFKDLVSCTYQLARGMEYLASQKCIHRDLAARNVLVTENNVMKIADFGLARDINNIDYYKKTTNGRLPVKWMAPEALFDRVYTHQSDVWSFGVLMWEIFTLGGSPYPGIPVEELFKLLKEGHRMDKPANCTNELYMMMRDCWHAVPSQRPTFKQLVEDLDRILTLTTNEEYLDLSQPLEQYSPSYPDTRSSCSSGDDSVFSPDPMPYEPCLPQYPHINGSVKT
- procedure summary: Transcreener Kinase Assay of FGFR2
- Format: biochemical
- assay conditions: read-out: FGFR2 (FP) IC50
attribute measured: IC50 (µM)

Use these answered entries as a reference point.
compound string	unit info	IC50
CCN1[C@H](C)CN(c2ccc(Nc3ncc(CCc4cc(C(=O)NC)cc(OC)c4Cl)cn3)cn2)C[C@@H]1C	µM	0.011
CCN1CCC(c2ccc(Nc3ncc(OCc4cc(C(=O)NC)cc(OC)c4F)cn3)cc2)CC1	µM	0.022

A: CNC(=O)c1cc(CCc2cnc(Nc3ccc(N4C[C@@H](C)N(C)[C@@H](C)C4)nc3)nc2)c(Cl)c(OC)c1
B: CNC(=O)c1cc(COc2cnc(Nc3ccc(C(C)=O)cc3)nc2)c(F)c(OC)c1
C: CNC(=O)c1cc(CCc2cnc(Nc3ccc(N)cc3)nc2)c(Cl)c(OC)c1
Input: Sort these compounds on IC50 so the largest reading comes first. Please list the labels in the order you were asked to rank them.
Output: B, C, A
(B: 0.02 µM, C: 0.011 µM, A: 0.007 µM)

I: CNC(=O)c1cc(CCc2cnc(Nc3ccc(N4C[C@@H](C)N[C@@H](C)C4)c(OC)c3)nc2)c(F)c(OC)c1
II: CNC(=O)c1cc(COc2cnc(Nc3cnn(C[C@@H]4COC(C)(C)O4)c3)nc2)c(F)c(OC)c1
Input: Identify the item whose IC50 is the smaller number: I or II Use the label to indicate which entry you chose.
Output: I
(I: 0.006 µM, II: 0.011 µM)
